Biological target: AceR (Acinetobacter baumannii)
Sequence (P0DUU5 84-297): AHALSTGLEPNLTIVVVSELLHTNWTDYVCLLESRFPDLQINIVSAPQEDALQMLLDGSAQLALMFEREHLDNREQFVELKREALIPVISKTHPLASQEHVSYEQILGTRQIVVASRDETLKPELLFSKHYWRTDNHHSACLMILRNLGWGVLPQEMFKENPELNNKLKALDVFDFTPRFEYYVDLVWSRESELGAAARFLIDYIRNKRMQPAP
PARAMETER_MEASURED: pKd
The scale used: pKd is minus the common logarithm of the concentration in molar units.

// query Write down the reported pKd of `[H]/N=C(\N/C(=N/[H])NCCCCCCNC(=N)NC(=N)Nc1ccc(Cl)cc1)Nc1ccc(Cl)cc1` , test system: AceR (Acinetobacter baumannii).
// result 4.21

src = paper PMC5961012
